# Tested on: RXRa homodimer (NR concentration 180 nM)
# EXPERIMENT SUMMARY: PBM binding z-score (relative to random genomic background probes); higher = stronger binding; sequences stand for … in GC…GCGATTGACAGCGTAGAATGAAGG
PARAMETER MEASURED: PBM binding z-score
Please give the numeric answer without any surrounding text.

Field: example entries. Status: answers known.
1. CATACAGGGTCAGATAGGCCAGAGTAGGGACGGC :: 3.75
2. TCATATAGGTAATATAGGTGAAAGTCGGCATCTA :: 0.79
3. ATATGTAGGTTACAACCGGGTCATTCAGGCTATG :: 3.49

Can you share its PBM binding z-score? I mean this sequence: "AATACAGAGTCATCGTAGGCCAGAGTACGCACAG" 0.406

Any idea what its PBM binding z-score is? The sequence is "TCTATTAGTTGAAGGGAAACCGACGAGTCCGTTT" 0.396

Look up PBM binding z-score for this sequence: "TCTCGGAGGACACGAAGGTCAGAGCTTTCCAGAG" 1.69

----------
Collected PBM binding z-score values appear next to each entry.
# System: PXR:RXRa (NR concentration 270 nM, RXRa partner concentration 90 nM)
# EXPERIMENT SUMMARY: PBM binding z-score (relative to random genomic background probes); higher = stronger binding; sequences stand for … in GC…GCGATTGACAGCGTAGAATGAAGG
Form field (numeric): enter value without unit.

1. GGTAGCAGGCCATTTGGGTCACTCAATGACGGGC :: 0.505
2. GCTAGCAGACCATTTGGGTCACTCAATGACGGGC :: 0.0959
3. ATCGACAGGTCGAAGGTGAGTATACCCACCCGAA :: 0.914

Quick check: PBM binding z-score on PXR:RXRa (NR concentration 270 nM, RXRa partner concentration 90 nM), item "CGTCCAAGGTCAATGCTAGGTAAGTGAAAGCATT" ? 3.28

Look up PBM binding z-score with PXR:RXRa (NR concentration 270 nM, RXRa partner concentration 90 nM) for this sequence: "TCTATTAGTTGATTACGGCAACCGAAACAGCGGA" 0.471

Provide value of PBM binding z-score for this record tested with PXR:RXRa (NR concentration 270 nM, RXRa partner concentration 90 nM): "ATCGAAAGGTCCAGGTGAGTATAGAGAAAGGGAA" 0.112

GET /values?readout=PBM binding z-score&system=PXR:RXRa (NR concentration 270 nM, RXRa partner concentration 90 nM)&item= "AGAATTAGGTTACCAAAGATCAGGGAAACGCTTG" 0.000566

What reported PBM binding z-score corresponds to "CTACCAAGGTGAACATGGTCGTTGATTACTATTC" on PXR:RXRa (NR concentration 270 nM, RXRa partner concentration 90 nM)? 0.435

// lookup PBM binding z-score | system=PXR:RXRa (NR concentration 270 nM, RXRa partner concentration 90 nM) | key= "GGAACGAGGGCTTTCGAGTTGATAGCATGGCGAT" 0.129

Param readout= PBM binding z-score; system= PXR:RXRa (NR concentration 270 nM, RXRa partner concentration 90 nM); entry= "AAAATGAGGTTACCAAAGATCAGGGAAACGCTTG" ; returns value. 1.71

For the record "GCTATTAGTTGAAACGGCAACCGAATGATTCTCG" , what value of PBM binding z-score is listed for PXR:RXRa (NR concentration 270 nM, RXRa partner concentration 90 nM)? -0.267

Kindly state the measured PBM binding z-score obtained for "GGAACGAGGGCAAGTGGATAGCAGAGTTTGATGG" with PXR:RXRa (NR concentration 270 nM, RXRa partner concentration 90 nM). 0.612

----------
Recorded PBM binding z-score values for a group of sequences are listed next.
# Test system: FXR:RXRa (NR concentration 270 nM, RXRa partner concentration 90 nM)
# EXPERIMENT SUMMARY: PBM binding z-score (relative to random genomic background probes); higher = stronger binding; sequences stand for … in GC…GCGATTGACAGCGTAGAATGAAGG

# annotated cases, reported PBM binding z-score shown
1. CCTGCTAGGTCAATGGTCAGCGAAAGCAGCTCGC :: 2.75
2. CAAACTAGGTTACAGAGGTCAAAGTCCGTGCGTA :: 6.15
3. ACTAGTTGGGCAGCTGAGGTCACACACAATTCGG :: 2.42

So what PBM binding z-score did "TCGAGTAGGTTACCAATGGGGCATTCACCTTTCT" get with FXR:RXRa (NR concentration 270 nM, RXRa partner concentration 90 nM)? 0.403

Any idea what PBM binding z-score came out for "CGTCCAAGGACAGCAGGTCAGTGAAAGCGACGTG" on FXR:RXRa (NR concentration 270 nM, RXRa partner concentration 90 nM)? 0.0413

Lookup: PBM binding z-score / FXR:RXRa (NR concentration 270 nM, RXRa partner concentration 90 nM) / "CCTTACGGGTCATTGACAGGTTATAGCATTTGGA" 5.92

----------
# Test system: VDR:RXRa (NR concentration 270 nM, RXRa partner concentration 90 nM)
# EXPERIMENT SUMMARY: PBM binding z-score (relative to random genomic background probes); higher = stronger binding; sequences stand for … in GC…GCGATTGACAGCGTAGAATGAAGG
Definition: the class of an entry is the range in low: < 0.7; middle: ≥ 0.7 and < 3; high: ≥ 3 that contains its PBM binding z-score.

Below are worked cases with known answers.
1) CCGACTGGGGCAAGGTTACCTTAACGCACAGCCA :: low
2) TCATATAGGTAAACAGGTAAAAGTCCGTAAGTTA :: middle
3) ATCTCTGGGTAAGACTCAGTTCAGTGAAGAACGC :: low
4) TCTATTAGTTGATTAGGGCAACCTAAACAGCGGA :: middle

Band for "TTACCAAGGTAAAGGTCGTTGATCCCTCTGTAGA" ? middle

Category lookup for the sequence "CGAACTAGGTCATCCAGGACACTGAATACATTGA" high

Lab note: which band did "CTACGAAGGTGAACAAGGTCGTTGATTACTATTC" land in? high

Given "GCTCGGAGGACAACGTCAGAGCTTTGTCCGTAGA" , name the class its PBM binding z-score places it in. low

Where would "CCTTACGGGACAAGGTTATAGCACGGGTGGTACG" land among the classes by reported PBM binding z-score? low

# bin label for "ATATGTAGATTATCGGGTCATTCAGTTTGCGCAT" high

Could you place "CTAGCAAGGTGAACAAGGTCGTTGATTACTATTC" in its proper category? Many thanks. high

Looking at "ATCTCTAGGGAAAAGTTCAGTGAATCCCGAGGAT" , which class would you pick? low

Note: place this sequence into its band. Item: "CCTGCGAGGTCAATGGTCAGCTAAAGCAGCTCGC" high

Any idea which band "TAGCCTAGGTCATGGGCCAGTACACCACGCGAAC" is in? middle

Form field 'band' for "CGGACTGGGGCAAGGTTACCATAACGCACAGCCA" low

Which bin should I file "CCTGCTAAGTCAATGGTCAGCTAAAGCAGCTCGC" under? low

Into which category would you place "TTACCAAGGTGAGTTGAGGTCGTTGATCCAACTC" ? high

Determine which band this sequence sits in: "TAGCCTAGGTCAGATCGGTCCAGTATACGCTATA" middle

Returns: class label. Input: "AGTCTAAGTTCAGGACGAGGTAACGTAAAGCACG" middle

----------
Listed below: PBM binding z-score values for each entry.
# System: RARg homodimer (NR concentration 270 nM)
# EXPERIMENT SUMMARY: PBM binding z-score (relative to random genomic background probes); higher = stronger binding; sequences stand for … in GC…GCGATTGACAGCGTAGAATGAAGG
Reply: number alone, nothing else.

Give the reported PBM binding z-score for "TCGAGTAGGTGAGTCGGGGCATTCAGCCAACATA" (system: RARg homodimer (NR concentration 270 nM)). -0.378

// fetch RARg homodimer (NR concentration 270 nM) PBM binding z-score for "AATACAGGGTTACTAGGCCAGAGTAGGTACGAAT" 0.893

Please provide the recorded PBM binding z-score for "GCTTGTAGGTCAAGGTTAAGAAAGACTAAGCTAA" , tested on RARg homodimer (NR concentration 270 nM). 5.18

Kindly state the measured PBM binding z-score obtained for "CTACCAAGGTGAACAAGTTCGTTGATTACTATTC" with RARg homodimer (NR concentration 270 nM). 1.02

GET /values?readout=PBM binding z-score&system=RARg homodimer (NR concentration 270 nM)&item= "GCTCGGAGGACAAGGTCAGAGCTTTGTCCGTAGA" 3.6

Lookup: PBM binding z-score / RARg homodimer (NR concentration 270 nM) / "ATCGAAAGGTCGAAGGTGAGTGTACCCACCCGAA" 3.37
